tested on: P-gp; test: in vitro; details: rat, pH 6.5, with verapamil 220 μM, mucosal side, Papp S-M, with inhibitor, rat ileum, with verapamil 220 μM on mucosal side
observable: Papp (×10⁻⁶ cm/s)
Field: numeric (×10⁻⁶ cm/s). Do not append units.

[ask] // fetch Papp; item: C[C@H]1O[C@@H](O[C@H]2[C@@H](O)C[C@H](O[C@H]3[C@@H](O)C[C@H](O[C@H]4CC[C@@]5(C)[C@H](CC[C@@H]6[C@@H]5C[C@@H](O)[C@]5(C)[C@@H](C7=CC(=O)OC7)CC[C@]65O)C4)O[C@@H]3C)O[C@@H]2C)C[C@H](O)[C@@H]1O [Digoxin] ; system: P-gp
[reply] 157

---

tested on: P-gp; assay: in vitro; conditions: rat, pH 6.5, Papp M-S, control, rat ileum, without inhibitor
observable: Papp

[ask] Output Papp of C[C@H]1O[C@@H](O[C@H]2[C@@H](O)C[C@H](O[C@H]3[C@@H](O)C[C@H](O[C@H]4CC[C@@]5(C)[C@H](CC[C@@H]6[C@@H]5C[C@@H](O)[C@]5(C)[C@@H](C7=CC(=O)OC7)CC[C@]65O)C4)O[C@@H]3C)O[C@@H]2C)C[C@H](O)[C@@H]1O
[reply] 43.1 ×10⁻⁶ cm/s

---

test system: P-gp; experiment: in vitro; details: rat, pH 6.5, with verapamil 220 μM, mucosal side, Papp M-S, with inhibitor, rat jejunum, with verapamil 220 μM on mucosal side
observable: Papp

[ask] Output Papp of C[C@H]1O[C@@H](O[C@H]2[C@@H](O)C[C@H](O[C@H]3[C@@H](O)C[C@H](O[C@H]4CC[C@@]5(C)[C@H](CC[C@@H]6[C@@H]5C[C@@H](O)[C@]5(C)[C@@H](C7=CC(=O)OC7)CC[C@]65O)C4)O[C@@H]3C)O[C@@H]2C)C[C@H](O)[C@@H]1O [Digoxin]
[reply] 119 ×10⁻⁶ cm/s

---

Molecular target: MRP2 (Rattus norvegicus)
Sequence (Q63120 whole entry): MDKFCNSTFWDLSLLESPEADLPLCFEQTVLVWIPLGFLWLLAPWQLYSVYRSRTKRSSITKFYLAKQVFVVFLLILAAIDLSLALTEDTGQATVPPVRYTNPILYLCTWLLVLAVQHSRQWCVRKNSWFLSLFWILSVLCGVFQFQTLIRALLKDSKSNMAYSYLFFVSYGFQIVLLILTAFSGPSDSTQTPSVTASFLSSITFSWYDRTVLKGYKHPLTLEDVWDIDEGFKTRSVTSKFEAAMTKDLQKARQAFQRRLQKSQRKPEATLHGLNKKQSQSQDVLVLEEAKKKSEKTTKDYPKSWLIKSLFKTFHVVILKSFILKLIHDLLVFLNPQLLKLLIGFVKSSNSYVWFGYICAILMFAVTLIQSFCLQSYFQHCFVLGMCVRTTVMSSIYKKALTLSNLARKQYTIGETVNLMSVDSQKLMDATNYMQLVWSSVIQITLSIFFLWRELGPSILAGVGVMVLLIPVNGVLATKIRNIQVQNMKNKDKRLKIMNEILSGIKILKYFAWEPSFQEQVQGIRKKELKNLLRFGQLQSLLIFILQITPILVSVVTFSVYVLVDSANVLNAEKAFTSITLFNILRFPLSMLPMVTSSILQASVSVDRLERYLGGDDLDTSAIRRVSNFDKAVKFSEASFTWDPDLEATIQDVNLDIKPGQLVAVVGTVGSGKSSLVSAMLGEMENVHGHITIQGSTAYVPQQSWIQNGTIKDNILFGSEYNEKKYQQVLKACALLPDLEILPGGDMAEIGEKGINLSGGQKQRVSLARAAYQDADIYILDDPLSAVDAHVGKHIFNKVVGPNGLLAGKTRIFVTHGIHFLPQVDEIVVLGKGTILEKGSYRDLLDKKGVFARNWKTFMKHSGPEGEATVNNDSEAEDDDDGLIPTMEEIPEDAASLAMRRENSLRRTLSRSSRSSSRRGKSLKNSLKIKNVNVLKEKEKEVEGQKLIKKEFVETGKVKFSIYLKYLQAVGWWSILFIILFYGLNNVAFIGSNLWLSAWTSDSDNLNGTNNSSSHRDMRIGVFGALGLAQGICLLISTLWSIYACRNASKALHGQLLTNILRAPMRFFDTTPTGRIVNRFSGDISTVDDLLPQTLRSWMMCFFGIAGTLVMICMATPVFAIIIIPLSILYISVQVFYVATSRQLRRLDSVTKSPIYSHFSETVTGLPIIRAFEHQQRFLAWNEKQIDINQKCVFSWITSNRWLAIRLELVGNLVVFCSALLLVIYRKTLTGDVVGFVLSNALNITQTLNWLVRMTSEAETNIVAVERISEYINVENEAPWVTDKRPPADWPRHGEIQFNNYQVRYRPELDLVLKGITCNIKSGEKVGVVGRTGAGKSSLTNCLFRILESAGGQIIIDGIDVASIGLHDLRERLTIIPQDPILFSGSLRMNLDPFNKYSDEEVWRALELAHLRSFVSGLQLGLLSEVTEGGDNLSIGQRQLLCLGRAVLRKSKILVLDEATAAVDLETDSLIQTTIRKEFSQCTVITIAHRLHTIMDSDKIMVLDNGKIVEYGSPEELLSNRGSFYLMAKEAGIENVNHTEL
Test: Ussing chamber bidirectional transport, model validation for MRP2 (pravastatin substrate, MK571 inhibitor)
Assay type: in vitro ADME
Set-up: intestinal segments including duodenum, jejunum, ileum, and colon from anesthetized rats were immediately removed by surgery; from tissue; host or cells: stripped rat intestine (jejunum and ileum in validation; jejunum for the emodin studies)
Settings: rat, pH 6.5, rat duodenum, without inhibitor; read-out: Papp S-M, control
Procedure: The four intestinal segments including duodenum, jejunum, ileum, and colon from anesthetized rats were immediately removed by surgery and washed with KRB solution. […] Digoxin, pravastatin, and teniposide were employed as the test substrates of P-gp, MRP2, and MRP3. […] The bidirectional transport studies with specific inhibitors were assessed to validate this model whether or not suitable for P-gp, MRP2, and MRP3 studies. […]
observable: Papp (×10⁻⁶ cm/s)
Field: numeric (×10⁻⁶ cm/s). Do not append units.

[ask] Output Papp of CC[C@H](C)C(=O)O[C@H]1C[C@H](O)C=C2C=C[C@H](C)[C@H](CC[C@@H](O)C[C@@H](O)CC(=O)O)[C@H]21
[reply] 287

---

target: MRP3 (Rattus norvegicus); construct: intestinal segments including duodenum, jejunum, ileum, and colon from anesthetized rats were immediately removed by surgery; from tissue; host or cells: stripped rat intestine (jejunum and ileum in validation; jejunum for the emodin studies); assay: Influence of emodin on MRP3 function: teniposide bidirectional transport in the presence of emodin (Ussing chamber); format: in vitro ADME; conditions: rat, pH 6.5, with emodin 740 μM on mucosal side, teniposide 60 μM, rat jejunum, emodin 740 μM on mucosal side; read-out: Papp M-S in the presence of emodin
Sequence (O88563 whole entry): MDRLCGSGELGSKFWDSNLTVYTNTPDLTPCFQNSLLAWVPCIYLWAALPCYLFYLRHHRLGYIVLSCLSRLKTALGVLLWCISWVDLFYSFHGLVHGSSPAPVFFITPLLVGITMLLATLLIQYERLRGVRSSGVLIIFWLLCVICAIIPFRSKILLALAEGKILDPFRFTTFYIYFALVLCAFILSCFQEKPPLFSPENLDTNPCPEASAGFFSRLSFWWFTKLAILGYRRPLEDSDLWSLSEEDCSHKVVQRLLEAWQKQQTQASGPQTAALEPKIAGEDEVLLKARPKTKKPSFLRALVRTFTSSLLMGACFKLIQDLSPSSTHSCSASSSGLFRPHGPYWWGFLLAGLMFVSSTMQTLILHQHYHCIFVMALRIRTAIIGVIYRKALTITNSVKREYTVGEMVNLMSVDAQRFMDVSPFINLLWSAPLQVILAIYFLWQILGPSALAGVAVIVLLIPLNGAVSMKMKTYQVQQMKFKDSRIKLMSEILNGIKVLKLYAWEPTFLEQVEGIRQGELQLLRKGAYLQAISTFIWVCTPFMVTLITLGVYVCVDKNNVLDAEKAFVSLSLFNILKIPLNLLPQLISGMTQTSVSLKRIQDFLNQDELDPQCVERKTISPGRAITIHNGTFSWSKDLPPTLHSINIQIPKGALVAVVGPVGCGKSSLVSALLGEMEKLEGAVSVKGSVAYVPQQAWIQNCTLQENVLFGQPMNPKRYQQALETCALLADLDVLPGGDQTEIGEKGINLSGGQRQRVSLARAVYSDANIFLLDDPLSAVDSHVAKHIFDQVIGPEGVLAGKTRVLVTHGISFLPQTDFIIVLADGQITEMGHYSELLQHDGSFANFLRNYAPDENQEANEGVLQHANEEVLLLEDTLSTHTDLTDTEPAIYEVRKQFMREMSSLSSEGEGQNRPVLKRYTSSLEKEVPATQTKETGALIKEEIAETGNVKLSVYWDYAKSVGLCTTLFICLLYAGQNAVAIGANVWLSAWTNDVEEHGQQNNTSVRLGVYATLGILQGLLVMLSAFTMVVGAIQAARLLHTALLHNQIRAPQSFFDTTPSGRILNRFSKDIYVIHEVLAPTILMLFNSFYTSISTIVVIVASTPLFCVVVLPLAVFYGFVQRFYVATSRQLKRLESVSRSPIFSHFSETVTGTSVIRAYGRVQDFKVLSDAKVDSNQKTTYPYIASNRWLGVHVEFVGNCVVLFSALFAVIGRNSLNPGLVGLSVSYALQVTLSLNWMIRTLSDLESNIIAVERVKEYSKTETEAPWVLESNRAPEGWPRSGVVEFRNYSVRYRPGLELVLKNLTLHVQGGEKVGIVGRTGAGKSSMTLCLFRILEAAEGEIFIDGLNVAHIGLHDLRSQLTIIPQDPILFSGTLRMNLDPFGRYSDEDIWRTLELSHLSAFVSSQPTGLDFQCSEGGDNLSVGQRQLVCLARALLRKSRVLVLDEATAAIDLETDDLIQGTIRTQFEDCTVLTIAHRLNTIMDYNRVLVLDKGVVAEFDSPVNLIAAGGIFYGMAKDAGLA
observable: Papp at 60 μM
Answer with the value and then the unit.

[ask] Output Papp at 60 μM of COc1cc([C@@H]2c3cc4c(cc3[C@@H](O[C@@H]3O[C@@H]5CO[C@@H](c6cccs6)O[C@H]5[C@H](O)[C@H]3O)[C@H]3COC(=O)[C@H]23)OCO4)cc(OC)c1O [Teniposide]
[reply] 91.1 ×10⁻⁶ cm/s
